Recorded human MASP2 IC50 for the following binders
tested on: Recombinant human MASP2 enzyme (fragment corresponding to amino acids 297-686, C-terminal His Tag) (human, UniProt O00187 297-686)
Sequence (O00187 other isoform, or with tags, fused parts or gaps limits assumed): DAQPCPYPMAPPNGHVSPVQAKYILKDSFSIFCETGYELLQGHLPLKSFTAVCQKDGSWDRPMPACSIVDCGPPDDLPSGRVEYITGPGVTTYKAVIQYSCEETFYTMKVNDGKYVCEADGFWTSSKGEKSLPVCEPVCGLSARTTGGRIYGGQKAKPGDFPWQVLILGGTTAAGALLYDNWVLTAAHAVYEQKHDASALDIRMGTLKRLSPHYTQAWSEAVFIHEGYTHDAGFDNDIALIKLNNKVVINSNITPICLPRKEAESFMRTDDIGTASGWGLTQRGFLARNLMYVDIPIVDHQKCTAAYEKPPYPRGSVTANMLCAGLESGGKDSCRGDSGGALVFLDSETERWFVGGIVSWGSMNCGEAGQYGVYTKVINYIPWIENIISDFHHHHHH
assay explanation: cell-based or functional assay
Bridge positions count the residues as written; N and C are the ends. Square brackets hold non-standard residues; d marks the D form. Ends that are not written are not given here. tBuAla = CC(C)(C)C[C@H](N)C(=O)O; Chg = N[C@H](C(=O)O)C1CCCCC1; Pen = CC(C)(S)[C@H](N)C(=O)O; Tranexamic = tranexamic acid; Orn = NCCC[C@H](N)C(=O)O
Value expressed in nM; do not type the unit.

Complete the entry with human MASP2 IC50 for [Orn]ICSRSLPP[Chg]CIPD-OH (disulfide 3-11; N-terminus assumed; SMILES CC[C@H](C)[C@H](NC(=O)[C@@H](N)CCCN)C(=O)N[C@H]1CSSC[C@@H](C(=O)N[C@H](C(=O)N2CCC[C@H]2C(=O)N[C@@H](CC(=O)O)C(=O)O)[C@@H](C)CC)NC(=O)[C@H](C2CCCCC2)NC(=O)[C@@H]2CCCN2C(=O)[C@@H]2CCCN2C(=O)[C@H](CC(C)C)NC(=O)[C@H](CO)NC(=O)[C@H](CCCNC(=N)N)NC(=O)[C@H](CO)NC1=O) [(Orn)-IC+SRSLPP-(Chg)-C+IPD-OH]
49

Complete the entry with human MASP2 IC50 for AICSRS[tBuAla]PPI[Pen]IP[Tranexamic]-NH2 (disulfide 3-11) [AIC+SRS-((tBu)A)-PPI-(Pen)+IP-(Tranexamic)-NH2]
30

Complete the entry with human MASP2 IC50 for AICSRSLPPI[Pen]IPD-NH2 (disulfide 3-11; N-terminus assumed; SMILES CC[C@H](C)[C@H](NC(=O)[C@H](C)N)C(=O)N[C@H]1CSSC(C)(C)[C@@H](C(=O)N[C@H](C(=O)N2CCC[C@H]2C(=O)N[C@@H](CC(=O)O)C(N)=O)[C@@H](C)CC)NC(=O)[C@H]([C@@H](C)CC)NC(=O)[C@@H]2CCCN2C(=O)[C@@H]2CCCN2C(=O)[C@H](CC(C)C)NC(=O)[C@H](CO)NC(=O)[C@H](CCCNC(=N)N)NC(=O)[C@H](CO)NC1=O) [AIC+SRSLPPI-(Pen)+IPD-NH2]
68
